The reported numbers originate from patent US20240270762A1.

Would you kindly list MIC for each of these molecules?
# Tested on: B. humptydooensis ATCC BAA-2767
# assayRemarks: microbe, parasite or virus in culture
# Assay type: cell-based
# setupConditions: Burkholderia humptydooensis, ATCCBAA2767, read-out: Minimum inhibitory concentration (MIC), B. humptydooensis ATCC BAA-2767

Param item = `O=C(NCCCN1CCN(C(=O)N[C@@H](C(=O)N[C@H]2Cc3ccc(F)c(C(=O)O)c3OB2O)c2cc(F)c(O)c(O)c2Cl)C(=O)C1=O)c1ccncc1O` ; retrieve measured MIC. 2 to 4 µg/mL

Request the reported MIC associated with O=C(O)c1c(F)ccc2c1OB(O)[C@@H](NC(=O)C(NC(=O)N1CCN(S(=O)(=O)CCNC(=O)[C@@H]3CCCN3)C1=O)c1cc(F)c(O)c(O)c1Cl)C2 (some centres unmarked) < 1 µg/mL

Given the entry O=C(O)c1c(F)ccc2c1OB(O)[C@@H](NC(=O)[C@H](NC(=O)N1CCN(C3CCN(Cc4cncc(O)c4)CC3)C1=O)c1cc(F)c(O)c(O)c1Cl)C2 (single isomer, unassigned) , report its measured MIC. < 1 µg/mL

Item under review: O=C(O)c1c(F)ccc2c1OB(O)[C@@H](NC(=O)[C@H](NC(=O)N1CCN(C3CCN(C(=O)c4cccc(O)c4F)CC3)C1=O)c1cc(F)c(O)c(O)c1Cl)C2 (single isomer, unassigned) . Reported MIC? < 1 µg/mL

MIC lookup needed for O=C(O)c1c(F)ccc2c1OB(O)[C@@H](NC(=O)[C@H](NC(=O)N1CCN(C3CCN(C(=O)c4cc(F)c(O)c(O)c4Cl)CC3)C1=O)c1ccc(P(=O)(O)O)cc1)C2 (single isomer, unassigned) , thanks. < 1 µg/mL

Can you look up the measured MIC of `O=C(NCCS(=O)(=O)N1CCN(C(=O)N[C@H](C(=O)N[C@H]2Cc3ccc(F)c(C(=O)O)c3OB2O)c2cc(F)c(O)c(O)c2Cl)C1=O)c1nccs1` for me? 8 to 16 µg/mL

// returns reported MIC for input `O=C(NCCS(=O)(=O)N1CCN(C(=O)N[C@@H](C(=O)N[C@H]2Cc3ccc(F)c(C(=O)O)c3OB2O)c2cc(F)c(O)c(O)c2Cl)C1=O)c1ccc(O)cc1` < 1 µg/mL

Endpoint output: MIC of O=C(O)c1c(F)ccc2c1OB(O)[C@@H](NC(=O)[C@H](NC(=O)N1CCN(C3CCN(C(=O)Nc4cccc(O)c4F)CC3)C1=O)c1cc(F)c(O)c(O)c1Cl)C2 (single isomer, unassigned) . Value? < 1 µg/mL

Which MIC value belongs to O=C(O)c1c(F)ccc2c1OB(O)[C@@H](NC(=O)[C@H](NC(=O)N1CCN(C3CCN(C(=O)c4cc(F)c(F)c(O)c4F)CC3)C1=O)c1cc(F)c(O)c(O)c1Cl)C2 (single isomer, unassigned) ? < 1 µg/mL

I'd like to know its MIC. The molecule in question is O=C(NCCCN1CCN(C(=O)NC(C(=O)N[C@H]2Cc3ccc(F)c(C(=O)O)c3OB2O)c2cc(F)c(O)c(O)c2Cl)C(=O)C1=O)c1c(F)cncc1Cl (some centres unmarked) 2 to 4 µg/mL

Dear colleague, I am looking for the recorded MIC of the following molecule: O=C(NCCCN1CCN(C(=O)NC(C(=O)N[C@H]2Cc3ccc(F)c(C(=O)O)c3OB2O)c2cc(F)c(O)c(O)c2Cl)C(=O)C1=O)c1ccccc1 (some centres unmarked) < 1 µg/mL

Please look up its MIC: O=C(O)c1c(F)ccc2c1OB(O)[C@@H](NC(=O)[C@H](NC(=O)N1CCN(C3CCN(C(=O)Nc4cc(O)c(O)c(Cl)c4)CC3)C1=O)c1ccc(P(=O)(O)O)cc1)C2 (single isomer, unassigned) < 1 µg/mL

Look up MIC for this molecule: `O=C(O)c1c(F)ccc2c1OB(O)[C@@H](NC(=O)[C@H](NC(=O)N1CCN(C3CCN(Cc4ccncn4)CC3)C1=O)c1cc(F)c(O)c(O)c1Cl)C2` < 1 µg/mL

Could you tell me which MIC is on file for `O=C(NCCS(=O)(=O)N1CCN(C(=O)N[C@@H](C(=O)N[C@H]2Cc3ccc(F)c(C(=O)O)c3OB2O)c2cc(F)c(O)c(O)c2Cl)C1=O)Nc1ccncc1` ? < 1 µg/mL

Requested read-out: MIC. Entry: O=C(NCCCN1CCN(C(=O)NC(C(=O)N[C@H]2Cc3ccc(F)c(C(=O)O)c3OB2O)c2cc(F)c(O)c(O)c2Cl)C(=O)C1=O)c1ccc(O)c(F)c1Cl (some centres unmarked) < 1 µg/mL

Could you share which MIC value was measured for O=C(O)c1c(F)ccc2c1OB(O)[C@@H](NC(=O)[C@H](NC(=O)N1CCN(C3CCN(C(=O)Nc4cc(F)c(O)c(O)c4Cl)CC3)C1=O)c1ccc(P(=O)(O)O)cc1)C2 (single isomer, unassigned) ? < 1 µg/mL

Which MIC value is on record for O=C(NCCN1CCN(C(=O)NC(C(=O)N[C@H]2Cc3ccc(F)c(C(=O)O)c3OB2O)c2cc(F)c(O)c(O)c2Cl)C1=O)c1cccnc1 (some centres unmarked) ? 2 to 4 µg/mL

Return reported MIC; argument: `O=C(NCCCN1CCN(C(=O)N[C@H](C(=O)N[C@H]2Cc3ccc(F)c(C(=O)O)c3OB2O)c2cc(F)c(O)c(O)c2Cl)C1=O)c1ccccc1` > 128 µg/mL

What does the record list as MIC for O=C(CN1CCN(C(=O)NC(C(=O)N[C@H]2Cc3ccc(F)c(C(=O)O)c3OB2O)c2cc(F)c(O)c(O)c2Cl)C(=O)C1=O)Nc1ccccc1 (some centres unmarked) ? > 128 µg/mL

# get_value(readout='MIC', item= O=C(O)c1c(F)ccc2c1OB(O)[C@@H](NC(=O)[C@H](NC(=O)N1CCN(C3CCN(C(=O)c4ccc(F)c(O)c4F)CC3)C1=O)c1cc(F)c(O)c(O)c1Cl)C2 (single isomer, unassigned) ) < 1 µg/mL
